The measured values listed here are drawn from ChEMBL document CHEMBL1201862.

Test system: NCI-H460
Assay: NCI tumour cell line growth inhibition, 48 h
The source made the active and inactive calls. No stated cut-off is given here; in the data, active = GI50 up to about 1.1 µM and inactive = higher.
Item-by-item account of GI50

# count of solved cases: 5
CC(C)(C)c1ccc(OCCOCCOc2ccc(C(C)(C)C)cc2S(=O)(=O)Nc2ccc([N+](=O)[O-])cc2)c(S(=O)(=O)Nc2ccc([N+](=O)[O-])cc2)c1; 8.85 µM (inactive)
CC(=O)OCC1OC(n2cc(F)c(=O)[nH]c2=O)C(N)C(OC(C)=O)C1OC(C)=O (stereo unspecified); > 100 µM (inactive)
N=C(N)N1CCC(N2CCOCC2)CC1; > 100 µM (inactive)
Cc1cc(=O)oc2cc(OC(=O)N(C)C)c(Cl)cc12; > 100 µM (inactive)
COc1ccc(OC)c(/C=N/N=C(\N)NO)c1; 15 µM (inactive)

What value of GI50 has been reported for the following compound? O=C(Nc1ccccc1[N+](=O)[O-])C(=O)C(C(=O)c1ccccc1-c1ccccc1)C1OC(=O)c2ccccc21 (stereo unspecified)
15.9 µM (inactive)

What value of GI50 has been reported for the following compound? Cc1cc(C)nc(NS(=O)(=O)c2ccc(Nc3c4ccccc4nc4c(C(=O)Nc5ccc(S(N)(=O)=O)cc5)cccc34)cc2)n1
88.1 µM (inactive)

What value of GI50 has been reported for the following compound? CC1=[N+]([O-])c2ccccc2C(=O)C1=O
61 µM (inactive)

What value of GI50 has been reported for the following compound? CO/N=C1/c2sccc2[C@H](NC(=O)CNC(=O)OC(C)(C)C)[C@@H]1O
> 100 µM (inactive)

* * *

Test system: A498
Experiment: NCI tumour cell line growth inhibition, 48 h
Activity calls are given as the source filed them. No stated cut-off is given here; in the data, active = GI50 up to about 1.1 µM and inactive = higher.
assayReadout: GI50

NC(Cn1ccc(=O)c(O)c1)C(=O)O (stereo not given); > 100 µM (inactive)
NC(=S)N/N=C1\C(=O)Nc2c(Cl)cc(Cl)cc21; 32.4 µM (inactive)
CCNC(=S)NNC(=O)c1csc(NC(=S)NC2CCCCC2)n1; 23 µM (inactive)
CN1C(=O)C(C)(C)NS1(=O)=O; > 100 µM (inactive)

# context switch: different molecule, same GI50
What value of GI50 has been reported for the following molecule? CC(=O)O[C@H]1C[C@](C)(O)[C@@]23CC([C@@H](OC(=O)C(C)(C)O)[C@@H](OC(C)=O)C2(COC(=O)c2ccccc2)[C@H]1OC(C)=O)C(C)(C)O3 (stereo not given in full)
> 100 µM (inactive)

* * *

Tested on: SR
Test: NCI tumour cell line growth inhibition, 48 h
Active and inactive are the calls of the source. Cut-off read from the data, not from the text of the source: active = GI50 up to about 1.1 µM and inactive = higher.
Pick one and only one: active, inactive

Solved entries:
N=C(N)N1CCC(N2CCOCC2)CC1; inactive
O=C(O)c1c(-c2nccc3ccccc23)[nH]c(-c2ccccc2)c1S(=O)(=O)O; inactive
CC(C)(C)OC(=O)[C@H]1CCC(=S)N1Cc1ccccc1; inactive

Please indicate how the test categorized Cc1ccc(-c2n[nH]c(=O)n2N2C(=O)C=CC2=O)cc1 .
inactive

Please indicate how the test categorized COc1c(Cl)ccc(Cl)c1C(=O)NNC(=O)c1c(Cl)c(Cl)c(Cl)c(Cl)c1-c1nc2cc(C(=O)c3ccccc3)ccc2[nH]1 .
inactive

Please indicate how the test categorized CC1=NN(C(=O)c2ccc(Cl)cc2)C(=O)C1/N=N/c1ccc(S(=O)(=O)Nc2ncccn2)cc1 (stereo unspecified) .
inactive

Please indicate how the test categorized CC1(C)C=C(S(=O)(=O)c2ccccc2)Oc2ccccc2O1 .
inactive

Please indicate how the test categorized Cc1c(CCN=P(c2ccccc2)(c2ccccc2)c2ccccc2)c(=O)n2c([nH]c3ccccc32)c1C#N .
inactive

Please indicate how the test categorized O=C(Nc1ccccc1)c1cc(S(=O)(=O)N2CCNNC2=O)c(S)cc1Cl .
inactive

Please indicate how the test categorized CCOC(=O)N1CCc2cc(OC)c(OC)c3c2c1cc1cc(OC)c(OC)cc13 .
active

Please indicate how the test categorized O=C1N[C@H]2c3c(Cl)sc(Cl)c3[C@@H](O)[C@H]2O1 .
inactive

Please indicate how the test categorized CCN(CC)C(=S)SC(C(=O)Nc1nnc(-c2ccc(Cl)cc2)o1)c1ccccc1 (stereo unspecified) .
inactive
